The entries below are paired with their reported switch fluorescence ratio.
# System: ATP;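 note: ATP exposure 15 min at 22 °C before imaging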
# assay: switch fluorescence ratio, 500 uM ATP over buffer (Cy3 cluster intensity, sum of 5 cycles each) (fold (ratio)); higher = stronger signal-on switching upon ATP binding; sequences stand for … in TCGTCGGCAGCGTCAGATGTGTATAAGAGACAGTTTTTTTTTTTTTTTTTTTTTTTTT…TC
# testSettings: aptamer strand: ATP DNA aptamer (quencher-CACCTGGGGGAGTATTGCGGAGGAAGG + anchor), 100 nM annealed; ATP concentration: 500 uM

sequenceData	switch fluorescence ratio
TGATAGGTGC	1.19
TTGCATGAGG	1.01
TGGCCATAGG	0.999
TATGCAGACT	0.956
ATTGAATTCT	1.02
GAAGAAAATT	1.01
TTCTGAGTCT	1.02
TCATTAATTG	1.02
GGGGTGCCAG	0.963
CGCGGCAAGG	1.32
CCAGACGTTT	1.04
GGGAAAAATA	1.24
TGGTGGGTGT	0.987
GCGACTTGGG	1.04
ACCGTGTTAT	0.958
GGGTGAGGGT	0.993
TGCAGGCCAA	1.08
CAAGTTAAGG	1.02
ATTGAGCAAA	1.11
TGGTATCGGC	0.992
ATTGTCGCCG	1.02
GGGCCTGGAG	1.01
CTGTTGGGCC	0.995
TGCATTACCC	1.25
ACAGACTCGG	1.04
CGAACTGCGT	1.02
GGGCCGCGCT	0.942
GGCTAAGACT	0.988
TCATGAGCTT	1.04
AGAGAAAAAG	0.957
CGACTGGCTG	1.01
TATTGACGGT	1.02
CCATTGGGTT	1.02
CACCAGGGCT	1.6
GGATGTAGGG	0.999
GCTATCTCTT	1.01
AGGAGCTAGT	1.01
GTTGTCAGGT	1
CCAGTGGTTG	0.982
GGCGGCGCAA	1.51
TGAGTACCGG	1.08
AGGTATGGTC	0.995
ACCCCGGTCG	1.17

====

# System: ATP;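 note: ATP exposure 15 min at 22 °C before imaging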
# assay: switch fluorescence ratio, 500 uM ATP over buffer (Cy3 cluster intensity, sum of 5 cycles each) (fold (ratio)); higher = stronger signal-on switching upon ATP binding; sequences stand for … in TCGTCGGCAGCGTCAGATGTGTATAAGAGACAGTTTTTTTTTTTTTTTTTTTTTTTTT…TC
# testSettings: aptamer strand: ATP DNA aptamer (quencher-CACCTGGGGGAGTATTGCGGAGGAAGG + anchor), 100 nM annealed; ATP concentration: 500 uM

sequenceData	switch fluorescence ratio
CTGTTTATTT	1.36
TGACACGGTT	0.981
GGTCGTGTAA	0.991
ATGACCTCTT	0.985
CGGTTGATCT	1.09
TTGAGGACGG	1.03
GGAGGGATCT	0.966
GACTTTAGGG	1.02
TTCGGTGACC	1.02
GGTGTGGCTA	0.989
CAAGACTTCG	1.01
AAGTAGCCGT	1.19
AGGGGGGCAA	1.03
GGGTTGGCTA	0.964
ATTTTAGGAC	1.03
GGATTTAGGT	0.994
TAAAGTAGTC	1.05
CATTAATTGT	1.02
TGAGTGTCTG	0.966
TAGAGAAGCA	1.01

====

# Tested on: ATP;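 note: ATP exposure 15 min at 22 °C before imaging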
# assay: switch fluorescence ratio, 500 uM ATP over buffer (Cy3 cluster intensity, sum of 5 cycles each) (fold (ratio)); higher = stronger signal-on switching upon ATP binding; sequences stand for … in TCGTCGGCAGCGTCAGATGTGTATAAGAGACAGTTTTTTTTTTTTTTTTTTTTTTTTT…TC
# testSettings: aptamer strand: ATP DNA aptamer (quencher-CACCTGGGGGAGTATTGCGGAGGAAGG + anchor), 100 nM annealed; ATP concentration: 500 uM
Rule: switch fluorescence ratio of 1 or more gives MET; anything lower gives NOT MET.

sequenceData	discreteLabel
GTAAGTAAAA	MET
TTTCGTACGG	MET
AGATTGCCGG	NOT MET
ATGATGGGCT	NOT MET
GGTCTATCGG	NOT MET

====

# System: ATP;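 note: ATP exposure 15 min at 22 °C before imaging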
# assay: switch fluorescence ratio, 500 uM ATP over buffer (Cy3 cluster intensity, sum of 5 cycles each) (fold (ratio)); higher = stronger signal-on switching upon ATP binding; sequences stand for … in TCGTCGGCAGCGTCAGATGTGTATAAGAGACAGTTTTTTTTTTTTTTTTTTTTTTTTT…TC
# testSettings: aptamer strand: ATP DNA aptamer (quencher-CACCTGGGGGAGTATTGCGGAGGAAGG + anchor), 100 nM annealed; ATP concentration: 500 uM
The entries below are paired with their reported switch fluorescence ratio.

sequenceData	switch fluorescence ratio
CAATGGGGGG	1.02
ATCATGGGTA	0.976
TGACATTTGT	0.965
TGGGGTTGCG	0.981
GCGGGCTAAC	1.17
TCACATTTTT	0.99
ATTGAAAAAC	1.03
CGGCAGGGGG	1.06
ATGCAATGGC	1.44
GCGGATGGCA	1
TGCTACAAGG	1.03
AGGAGATTCA	0.959
AAGGCATTAT	1
AGTTGTGGGG	0.995
TACACGGGTT	1.01
AGGATAAACT	1
AGAACTGAGA	0.998
ATACGGATGG	0.984
GGTTATGGTG	1.02
TTTGAGTTTT	0.989

====

# System: ATP;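 note: ATP exposure 15 min at 22 °C before imaging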
# assay: switch fluorescence ratio, 500 uM ATP over buffer (Cy3 cluster intensity, sum of 5 cycles each) (fold (ratio)); higher = stronger signal-on switching upon ATP binding; sequences stand for … in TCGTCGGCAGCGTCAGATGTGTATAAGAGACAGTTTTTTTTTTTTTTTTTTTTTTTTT…TC
# testSettings: aptamer strand: ATP DNA aptamer (quencher-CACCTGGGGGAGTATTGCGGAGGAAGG + anchor), 100 nM annealed; ATP concentration: 500 uM
Rule: switch fluorescence ratio of 1 or more gives condition met; anything lower gives condition not met.

sequenceData	subjectOfTest	discreteLabel
AAGACCGTTG	ATP	condition not met
TTTATAGAAA	ATP	condition met
GGTATTCTGT	ATP	condition not met
ACGAGTTACT	ATP	condition met
AGGCGGGGTG	ATP	condition met

====

# System: ATP;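 note: ATP exposure 15 min at 22 °C before imaging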
# assay: switch fluorescence ratio, 500 uM ATP over buffer (Cy3 cluster intensity, sum of 5 cycles each) (fold (ratio)); higher = stronger signal-on switching upon ATP binding; sequences stand for … in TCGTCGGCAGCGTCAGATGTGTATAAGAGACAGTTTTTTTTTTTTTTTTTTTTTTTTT…TC
# testSettings: aptamer strand: ATP DNA aptamer (quencher-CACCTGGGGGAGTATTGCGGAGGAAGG + anchor), 100 nM annealed; ATP concentration: 500 uM
The entries below are paired with their reported switch fluorescence ratio.
endpoint: switch fluorescence ratio

sequenceData	recordedResult
ATAAATTGCG	0.993
TGTCTCGCCC	1.02
CGATAAATTA	0.997
TTTAAATGTT	0.991
TAATCAGGAA	1.01
TGTTATTTGA	0.996
CGGGGGGGAA	0.999
TATCTTCTAT	1.04
ATGTATTCGA	0.996
ACTTCTAAAC	1.07
CTCCTCGTCA	1.17
TTTAAGAGGG	0.978
ATGGGCCCCT	0.987
TAACGGGGCA	0.984
AGGCTTATCG	1.02
TCGATATATG	1
TCGGATAGTC	1.01
CTGTGTATGT	1.02
GATCCGGGC	1.05
GGCAATGGTT	1.1
TAGAAAGGGA	1.02

====

# Tested on: ATP;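 note: ATP exposure 15 min at 22 °C before imaging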
# assay: switch fluorescence ratio, 500 uM ATP over buffer (Cy3 cluster intensity, sum of 5 cycles each) (fold (ratio)); higher = stronger signal-on switching upon ATP binding; sequences stand for … in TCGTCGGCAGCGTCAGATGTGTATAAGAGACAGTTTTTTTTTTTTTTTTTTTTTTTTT…TC
# testSettings: aptamer strand: ATP DNA aptamer (quencher-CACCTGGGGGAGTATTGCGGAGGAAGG + anchor), 100 nM annealed; ATP concentration: 500 uM
endpoint: switch fluorescence ratio

sequenceData	endpoint	recordedResult
TTGGTTTATG	switch fluorescence ratio	0.993
ATAATTAAGA	switch fluorescence ratio	0.992
CTAGGTGTGA	switch fluorescence ratio	1.07
TTAGCGGTGG	switch fluorescence ratio	0.926
GGTACGATGG	switch fluorescence ratio	1.01
GTGTTTTACG	switch fluorescence ratio	1.01
TGATTTAAGT	switch fluorescence ratio	0.992
AAAGCTGAAT	switch fluorescence ratio	0.992
GTATCGAGGA	switch fluorescence ratio	0.963
TGGCGTTTGG	switch fluorescence ratio	1
ATTTAATACG	switch fluorescence ratio	1.02
GTTAGGCCAG	switch fluorescence ratio	0.986
GGCCGAGGGT	switch fluorescence ratio	1.03
ACTACGTCGA	switch fluorescence ratio	2.01
TAGTCGGCGC	switch fluorescence ratio	1
TGGGAGTATA	switch fluorescence ratio	1
CTCTGGGGCG	switch fluorescence ratio	1.01
CGATGCACGG	switch fluorescence ratio	1.11
AGAGGGTTAT	switch fluorescence ratio	0.985
AAGAGGGGT	switch fluorescence ratio	0.99
CTGATCAGTT	switch fluorescence ratio	1.02
TTTGGGGGCA	switch fluorescence ratio	0.989
ATACGGGAGT	switch fluorescence ratio	1
ATCTATATAG	switch fluorescence ratio	0.995
GGGGATGGTG	switch fluorescence ratio	1
ATTGATTGAA	switch fluorescence ratio	1.01
CATTAAGCTG	switch fluorescence ratio	1
TGTGGCTAGG	switch fluorescence ratio	1.02
CTGCGTAGGG	switch fluorescence ratio	1.04
CAGAAACGGT	switch fluorescence ratio	1
TGGGGGTAAG	switch fluorescence ratio	0.989
CGGGTTAGTC	switch fluorescence ratio	1.07
AGGAAGGCGG	switch fluorescence ratio	1.02
GGGGGGATAC	switch fluorescence ratio	1.7
GTGTATAGTG	switch fluorescence ratio	0.982
ATATTTGACA	switch fluorescence ratio	1.01
AAGGGATGGC	switch fluorescence ratio	1.03
TTTTTCGCCT	switch fluorescence ratio	1.01
ACATTGATGG	switch fluorescence ratio	1.03
TCGAGGTTGC	switch fluorescence ratio	0.993
TCGGGAGTAT	switch fluorescence ratio	1.04
ATATTAGTCT	switch fluorescence ratio	1
CTAGGCAGGG	switch fluorescence ratio	1.01
CAGGGGTAGG	switch fluorescence ratio	1.09
GTTTGGGATT	switch fluorescence ratio	1
TATGCATATG	switch fluorescence ratio	1.02
AGTAGGCAAA	switch fluorescence ratio	1.01
ATGGAATCAG	switch fluorescence ratio	1.01
CGTATAGTAG	switch fluorescence ratio	0.958
GGGTACCGAC	switch fluorescence ratio	1.08
CTATTAAGTA	switch fluorescence ratio	0.98
GAGGCAAAGT	switch fluorescence ratio	1.09
TAGTGGGAAT	switch fluorescence ratio	0.968
GGGCGGTATA	switch fluorescence ratio	0.986
TAGCATGGTA	switch fluorescence ratio	0.976
GTTCAAATCA	switch fluorescence ratio	0.997
GCTGGGGGAA	switch fluorescence ratio	0.98
TATGACTCGT	switch fluorescence ratio	0.99
GGTTTTTTGC	switch fluorescence ratio	1.01
GGAGCTGCGG	switch fluorescence ratio	0.991
GAGCGGGGGT	switch fluorescence ratio	1.01
TCCTTCGGTT	switch fluorescence ratio	1.39
CTAGTTTTTG	switch fluorescence ratio	0.997
CTGGGTGCAT	switch fluorescence ratio	1.14
TCAGAGGGCT	switch fluorescence ratio	0.991
CGGAATGGTT	switch fluorescence ratio	1.04
GTGTCGTGGC	switch fluorescence ratio	1.01
AGAAAAGAGT	switch fluorescence ratio	1.01
AGGTATGCAG	switch fluorescence ratio	0.998
GCGGGGGGAC	switch fluorescence ratio	1.01
TGAGGTTTGT	switch fluorescence ratio	0.98
AAGAGTATCT	switch fluorescence ratio	1.01
TATTGTAATT	switch fluorescence ratio	1.01
ACCAAACGTG	switch fluorescence ratio	1.23
TCGGGGGGG	switch fluorescence ratio	1.01
GAAGGGTGCG	switch fluorescence ratio	1.02
ATCGAATCCT	switch fluorescence ratio	1.09
CTTTAAGCTT	switch fluorescence ratio	0.998
GAAAAAGCGG	switch fluorescence ratio	1.04
GCTGTTCCCG	switch fluorescence ratio	1.04
GTTATGGGGG	switch fluorescence ratio	1.04
GCAATCAGAA	switch fluorescence ratio	1.04
ACATAACGAA	switch fluorescence ratio	1.21
CGGTCAATTG	switch fluorescence ratio	1
GAGACTATTT	switch fluorescence ratio	0.976
AATTATGGTG	switch fluorescence ratio	1.01
